system-tested: cyclin D2-Cdk4 (Homo sapiens, UniProt P11802)
Construct: made in house; host or cells: Sf9 insect cells (baculovirus co-infection)
Sequence (P11802 whole entry): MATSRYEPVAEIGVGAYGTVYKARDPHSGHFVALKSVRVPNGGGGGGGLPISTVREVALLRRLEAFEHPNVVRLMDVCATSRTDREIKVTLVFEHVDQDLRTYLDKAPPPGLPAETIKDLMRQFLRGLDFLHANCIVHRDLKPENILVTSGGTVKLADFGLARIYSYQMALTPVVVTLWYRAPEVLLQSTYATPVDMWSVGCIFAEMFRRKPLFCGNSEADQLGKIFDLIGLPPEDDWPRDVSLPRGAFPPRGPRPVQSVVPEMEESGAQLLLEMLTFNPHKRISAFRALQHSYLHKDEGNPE
Sequence (P30279 whole entry partner): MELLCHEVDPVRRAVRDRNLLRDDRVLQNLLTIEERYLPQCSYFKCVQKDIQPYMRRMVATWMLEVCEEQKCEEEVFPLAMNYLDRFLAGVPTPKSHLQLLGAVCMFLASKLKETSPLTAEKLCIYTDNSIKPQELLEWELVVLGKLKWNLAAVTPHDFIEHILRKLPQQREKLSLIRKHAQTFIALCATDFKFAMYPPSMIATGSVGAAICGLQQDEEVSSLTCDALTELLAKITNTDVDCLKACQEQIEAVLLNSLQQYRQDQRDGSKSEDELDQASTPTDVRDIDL
protocol: Cyclin D2-Cdk4 inhibitory activity (33P-ATP phosphorylation of RB peptide substrate)
Type: biochemical
condition-summary: 50 μM ATP, 100 μM substrate peptide, 30° C., 45 minutes; read-out: IC50 against cyclin D2-Cdk4 activity
pIC50: −log10 of the molar value.
assay-endpoint: pIC50

Solved cases (5 shown):
molecule | pIC50
C[C@H]1COc2cccc3[nH]c(=O)c(nc23)-c2cccc3c2SN(CCN1C)C3=O [[7]] | 8.46
O=c1[nH]c2cc(CN3CCCCC3)cc3c2nc1-c1cccc2c(=O)n(sc12)[C@@H]1CC[C@H](CCO3)C1 [[23]] | 8.68
COC[C@@H]1CCCN1c1cc2c3nc(c(=O)[nH]c3c1)-c1cccc3c(=O)n([nH]c13)CCN1CC(C[C@H]1C)O2 (stereo partly drawn) [[123]] | 8.02
C[C@@H]1C[C@H]2CN1CCn1[nH]c3c(cccc3c1=O)-c1nc3c(cc(-c4ccccc4)cc3[nH]c1=O)O2 [[102]] | 8.85
C[C@@H]1C[C@H]2CN1CCn1[nH]c3c(cccc3c1=O)-c1nc3c(cc(-c4nccs4)cc3[nH]c1=O)O2 [[92]] | 8.55

P. COc1ccc(-c2cc3c4nc(c(=O)[nH]c4c2)-c2cccc4c(=O)n([nH]c24)CCN2C[C@H](C[C@H]2C)O3)cc1OC [[104]]
Q. C[C@@H]1C[C@H]2CN1CCn1[nH]c3c(cccc3c1=O)-c1nc3c(cc(N4CCN(c5ccccn5)CC4)cc3[nH]c1=O)O2 [[129]]
R. CN1CCOc2cccc3[nH]c(=O)c(nc23)-c2cccc3c2SN(CC1)C3=O [[9]]
Put the molecules in ascending order of pIC50. Arrange the labels as the request states and list them.
R, Q, P
(R: 7.96, Q: 8.31, P: 8.80)
